Would you mind telling me the reported apparent KD of K4 kissing-loop reporter of each entry?
system: K4 kissing-loop RNA reporter; test: apparent KD of K4 kissing-loop reporter; higher = weaker reporter binding; conditions: Eterna round: R107; input ligand: theophylline 20 uM;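 further: bound reporter read as fluorescence of individual clusters on recovered sequencing chips by microscopy, with normalized cluster intensities fitted with a binding model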
Express your answer in nM, writing the number without its unit.

Report measured apparent KD of K4 kissing-loop reporter; entry is UGAUAGGACAGAAGGAGCGGUAGUGAUGUUACCAAAAGAAUAAGGUGUCAAAAGACACCCUGCCAGGUAGGUCGCUGUCCUAUCU 123

Report measured apparent KD of K4 kissing-loop reporter; entry is GUACGCUCUCGAGUGAUGUUCGGUAAUAGUUAGGAUAUCGCUUUUGCGAGAAGGAACUGAAUGAGGAAACUCGUUCUGAGUGUAC [FMN A 18] 398

Report measured apparent KD of K4 kissing-loop reporter; entry is UAAUGUGGCACAGGAUAUACUGAUUGGAGUGAUGUUCCAAACAUGAACAAGAGACUUUUACAAGAAGUAGAAGGGUGUUAGAUAU [Exclusion FMN B GF 19] 295

Report measured apparent KD of K4 kissing-loop reporter; entry is GUAUCGCUAGGAGGAUAUUCCAUUUUACAUAGAAAUGGCUAUGCGAAGUGAUGUUUCGAUUUACGGGAAGAAGGCCUAGUGAUAC [FMN B 22] 177

Report measured apparent KD of K4 kissing-loop reporter; entry is AGCAAAACCAAAGGAUAUUGGCAGUCGAUGUACCAUGUUCCCGUAGCAGGUUGAGUGAUGUUUAAGCAAGAAGGUUGGCGUUUGG [theeternabot_exclusion_KL_FMN_B_12] 457

Report measured apparent KD of K4 kissing-loop reporter; entry is UUCGUCGCGCAUGAUACCAGCGAGAUUUAACGCCGAAUCCUCACGCAGUGAUGUUGCACCCGCCCUUGGCAGCAUAGCCGGUUAC [theeternabot_sameState_KL_Theo_B_13] 344

Report measured apparent KD of K4 kissing-loop reporter; entry is AAGACCUGCAUCGAUACCAGCCCAGUGAUGUUGGGCUGCUCUCCAUGGGUGCCAGACACGGGCCCUUGGCAGCGAGGUAGGGCCC [Zazadilabi] 93.1

Report measured apparent KD of K4 kissing-loop reporter; entry is GCCGUAGAUUGAAGGAGCGCCGCGCAUGUCCCGCUUAGUGUAGUGAUGUUACAGUUUCAGCGGCAGGUAGGUCGCAAUCUACGGC 77.2

Report measured apparent KD of K4 kissing-loop reporter; entry is UCGCCCGAUGGAGAUACCAGCAGUUGUGCAGUGAUGUUGCACAAGUACUCGCUCCAUUGCUGCCCUUGGCAGCUCCCGGCAAACA [Enraed] 82.8

Report measured apparent KD of K4 kissing-loop reporter; entry is UCACCGCCUAGUGAUGUUACGCGACUCAGAAAGGAUAUAAUCAAUCUUAGAAGGUUCACACCGUAUGGAUAUUAUCUAUCUCGUU [theeternabot_exclusion_KL_FMN_A_39] 437

Report measured apparent KD of K4 kissing-loop reporter; entry is AAAAUAAAUAGCAGUCAUGGAGUGAUGUUCCGAGGACCGGUACGGCCGCCACUCGACCAUCAUAAGAUGGAUGGCGAAGACUGCA [#SwitchBubble 24 #K4Early] 445

Report measured apparent KD of K4 kissing-loop reporter; entry is CGAUACGGAAAUACGUGUCUCUAUUCAGAAGGAGCGUGGUAGUACACAGGUAGGUCGCUGAAUUUUAAACUAGUGAUGUUAGUCU [JR_SSArginiA_Sub005] 292

Report measured apparent KD of K4 kissing-loop reporter; entry is AAAGUUGAAAGUGAUACCAGACGAGUGAAGGGAAGUAAUUAAUUUGGAGUGAUGUUCCGCGUCCCUUGGCAGCAUUUUGUAAUUU [Exclusion Theophylline B GF 24] 186

Report measured apparent KD of K4 kissing-loop reporter; entry is AAAUAGAUCAGUCACCCAGUGAUGUUGGAAGGAGCGUGCGAAAGCACAGGUAGGUCGCCAGAAUAAAAGUGGCUGAUCAAAAUAA 513

Report measured apparent KD of K4 kissing-loop reporter; entry is GGCAUGGUGACGCGGCUGCCAUACGCUUGGGAGGAUAUGUUUCGUGACAGAAGGCCCAGUGAUGUUGGGUCUGUUCAAAAGGACU [Arisus] 169

Report measured apparent KD of K4 kissing-loop reporter; entry is GCGCUUAAAUAAGGAUAUUACAGACUCAUCUACGAGUGAUGUUCGGUGCGCUGUGCACAGAGCCUGUAAGAAGGUAUAGCAUUGC [theeternabot_sameState_KL_FMN_B_41] 811
